# Tested on: UACC-62 melanoma
# experiment: NCI tumour cell line growth inhibition, 48 h
assay_readout: TGI (µM)

# compound, assay_readout, bound_sign, recorded_value
measured = [
    ("Cn1ccc2c(c1=O)C(=O)OC2(C)C", "TGI", ">", 100),
    ("COC(=O)[C@H]1[C@H]2C[C@@H]3c4[nH]c5cc(OC)ccc5c4CCN3C[C@H]2C[C@@H](OC(=O)/C=C/c2cc(OC)c(OC)c(OC)c2)[C@@H]1OC", "TGI", "=", 33.4),
    ("CC(C)(C)C(=O)N1CCN(C=O)C1=S", "TGI", ">", 100),
    ("O=NN1CCCS1(=O)=O", "TGI", ">", 100),
    ("Clc1ccc2c(c1)C(N1CCNCC1)=Nc1ccccc1O2", "TGI", "=", 3.1),
    ("CCC1(OC(=O)CN)C(=O)OCc2c1cc1n(c2=O)Cc2cc3cc4c(cc3nc2-1)OCO4 (configuration not stated)", "TGI", "<", 0.01),
    ("CCN(CC)CCOc1c(OC)c(Br)cc2c(C)c(C(=O)OC)oc12", "TGI", "=", 4.92),
    ("COC(=O)[C@@]1(C)CCC[C@]2(C(=O)O)C3Cc4occc4[C@H](C)[C@@H]3CCC21 (some centres not stated)", "TGI", ">", 100),
    ("COC1(OC)C=CC(=O)C=C1", "TGI", "=", 4.08),
    ("COc1ccc2ccccc2c1CN1CCOCCOCCN(Cc2c(OC)ccc3ccccc23)CCOCCOCC1", "TGI", ">", 100),
    ("CS(=O)(=O)[O-].CS(=O)(=O)[O-].NC1CCCCC1N.[Pt+4] (configuration not stated)", "TGI", ">", 100),
    ("CN1C(=O)C2C=CC1C1CCC2N(C)C1=O (configuration not stated)", "TGI", ">", 100),
    ("C/C(=C(/c1ccc(O)cc1)c1ccc(Cl)cc1)c1ccccc1", "TGI", "=", 1.06),
    ("COC(=O)C(CC(=O)c1c[nH]c2ccccc12)c1c[nH]c2ccccc12 (configuration not stated)", "TGI", ">", 10),
    ("COc1ccc(OC)c(C[P+](c2ccccc2)(c2ccccc2)c2ccccc2)c1", "TGI", "=", 12.8),
    ("O=C(Nc1ccc(Br)cc1)Nc1nn(C(=O)Nc2ccc(Br)cc2)c2ccccc12", "TGI", ">", 100),
    ("Clc1ccc2c(c1)[nH]c1c2nc2sccn21", "TGI", ">", 100),
    ("CC1CN=C(c2ccc(-c3nc(-c4ccc(C5=NCC(C)N5)cc4)nc(N(C)C)n3)cc2)N1 (configuration not stated)", "TGI", "=", 3.41),
    ("COc1cc2c(cc1OC)C(=O)/C(=C/c1ccc(O)cc1)CC2", "TGI", ">", 10),
    ("COc1ccccc1NC(=S)N/N=C/c1ccccn1", "TGI", "=", 3.75),
    ("C/C(=N\\NC(=S)N1CCN(c2ccccn2)CC1)c1nccs1", "TGI", "=", 0.834),
    ("O=C(CSc1nc(-c2ccccc2)c(-c2ccccc2)[nH]1)NNC(=S)Nc1ccccc1", "TGI", ">", 100),
]
